- System: human CD34+ stem cells
- procedure text: Bone marrow stem cell (hematopoietic) colony formation assay
- Format: cell-based
- protocol conditions: 40 μM compound; 14 days; mean N=2
measured quantity: mean number of colonies, % of control, 14 day

Which mean number of colonies, % of control, 14 day reading was recorded for the compound O=C(COC(=O)c1cccs1)c1ccc2[nH]c(=O)[nH]c2c1 ?
94 % of control

Recorded mean number of colonies, % of control, 14 day for Cc1nnsc1C(=O)OCCCn1c(=O)[nH]c2ccccc21 , please?
93 % of control

Reported mean number of colonies, % of control, 14 day for O=C(Nc1nnn[nH]1)c1cc(-c2ccccc2)nc2ccccc12 : what is it?
119 % of control

Name the reported mean number of colonies, % of control, 14 day value associated with the compound c1ccc(CCc2n[nH]c(-c3ccccn3)n2)cc1
85 % of control

Any idea what mean number of colonies, % of control, 14 day was measured for O=C(Cc1n[nH]c(=O)c2ccccc12)Nn1cnc2ccccc21 ?
103 % of control

Need mean number of colonies, % of control, 14 day, item O=C(Cn1c(=O)oc2ccccc21)N1CCn2c1nc1ccccc12
87 % of control

Name the reported mean number of colonies, % of control, 14 day value associated with the compound O=C(CCc1c[nH]c2ccccc12)N1CCSc2ccccc21
101 % of control

Entry c1ccc2sc(-c3ccc(CNc4ccc5nnnn5n4)o3)nc2c1 : reported mean number of colonies, % of control, 14 day = ?
57 % of control

meta.source: paper doi:10.1101/2024.05.17.594634
